- Test system: NCI/ADR-RES ovarian
- assay-comment: NCI tumour cell line growth inhibition, 48 h
Listed here: items and their measured TGI.

{"columns": ["compound", "measured-endpoint", "reading"],
 "data": [
  ["N#CCC(=O)N/N=C\\C(O)C(O)C(O)C(O)CO (stereo not given)", "TGI", "> 100 µM"],
  ["COC(=O)c1sc(=S)sc1SCc1cccc(CSc2sc(=S)sc2C(=O)OC)c1", "TGI", "> 100 µM"],
  ["Cc1csc(=Nc2ccccc2)n1CCC(O)(P(=O)(O)O)P(=O)(O)O", "TGI", "> 100 µM"],
  ["COC(=O)c1ccc(CCC2=CC(=O)C=CC2=O)cc1", "TGI", "61.2 µM"],
  ["CCOC(=O)C#Cc1c(C(=O)OCC)nnn1[C@@H]1O[C@H](COC)[C@@H](OC)[C@H]1OC", "TGI", "37.3 µM"],
  ["O=S1(=O)C(=C(c2ccccc2)c2ccccc2)S(=O)(=O)c2ccccc21", "TGI", "> 100 µM"]
]}

Okay, next one:
If you can, please state the reported TGI value of CCOC(=O)c1cn(-c2ccc([N+](=O)[O-])cc2)c(=S)n2c1nc1ccccc12 .
> 100 µM

---

- System: OVCAR-4 ovarian
- assay-comment: NCI tumour cell line growth inhibition, 48 h
measured-endpoint: TGI

{"columns": ["molecule", "TGI"],
 "data": [
  ["O=C1c2ccccc2C2(O)N(c3ccccc3)C(=S)N(c3ccccc3)C12O (centres undefined)", "> 100 µM"],
  ["COc1ccc([C@@H]2[C@@H](Oc3ccccc3)C(=O)N2c2cc(OC)c(OC)c(OC)c2)cc1F", "> 100 µM"],
  ["CC1(C)CC2=NO[Se]3=C2C(=NO3)C1", "21.7 µM"]
]}

Notebook entry, OVCAR-4 ovarian assay: TGI of C=CCN(c1cc(O)c2c(c(C)cn2S(=O)(=O)c2ccccc2)c1[N+](=O)[O-])S(C)(=O)=O = ?
> 100 µM

---

Listed here: items and their measured TGI.
- Tested on: MDA-MB-435
- assay-comment: NCI tumour cell line growth inhibition, 48 h
Give the quantity in µM, number only.

{"columns": ["smiles-entry", "target", "unit-name", "TGI"],
 "data": [
  ["CC1(C)CC2=NO[Se]3=C2C(=NO3)C1", "MDA-MB-435", "µM", 15.5],
  ["O=C(/C=C/c1ccccc1)CCN1CCCCC1", "MDA-MB-435", "µM", 84.4],
  ["CN1CCN(C(=O)/C=C/c2ccc([N+](=O)[O-])o2)CC1", "MDA-MB-435", "µM", 14.9],
  ["C(=C\\c1cc[n+](CCc2ccccc2)cc1)/c1ccccc1", "MDA-MB-435", "µM", 18.4],
  ["c1cc(OCCCCCOc2cccc(-c3nc4ccccc4[nH]3)c2)cc(-c2nc3ccccc3[nH]2)c1", "MDA-MB-435", "µM", 6.74]
]}

Okay, next one:
If you can, please state the reported TGI value of CC(=O)O[C@H]1C[C@@H]2[C@@]3(C)CC[C@H]4C[C@@]4(C)[C@@H]3CC[C@@]2(C)C2=CCC3=C(COC3=O)[C@]21C .
46.9

---

Listed here: items and their measured GI50.
- Test system: HCC-2998 colon
- assay-comment: NCI tumour cell line growth inhibition, 48 h

The cases that follow already have their GI50 on record.
{"columns": ["molecule", "target", "reading"],
 "data": [
  ["CN(C)[C@@H]1C(=O)C(C(=O)NCc2nc3[nH]cnc(=S)c3[nH]2)=C(O)[C@@]2(O)C(=O)C3=C(O)c4c(O)cccc4[C@@](C)(O)[C@H]3C[C@@H]12", "HCC-2998 colon", "5.09 µM"],
  ["COc1ccc(-n2c(=O)c3ccccc3n(Cc3ccc(C(=O)NO)cc3)c2=O)cc1", "HCC-2998 colon", "1.81 µM"],
  ["COc1cc2c(cc1C)NC(=O)/C2=C\\c1ccc(Oc2ccccc2)cc1", "HCC-2998 colon", "16.3 µM"]
]}

Okay, next one:
If you can, please state the reported GI50 value of CN(C)CCCC1(c2ccc(F)cc2)OCc2cc(-c3csc4ccccc34)ccc21 (centres undefined) .
1.65 µM

---

- Tested on: OVCAR-5 ovarian
- assay-comment: NCI tumour cell line growth inhibition, 48 h
measured-endpoint: TGI (µM)
Give the quantity in µM, number only.

{"columns": ["compound", "reading"],
 "data": [
  ["Cc1cccc(Oc2ccc(Nc3ncnc4ccc(NC(=O)CN(C)C)cc34)cc2Cl)c1", 12.9]
]}

Notebook entry, OVCAR-5 ovarian assay: TGI of CCCCCCCCCCCCOC1C(C(COC2OC(C(O)CO)C3OC(C)(C)OC23)OC(=O)Nc2ccccc2)OC2OC(C)(C)OC21 (centres undefined) = ?
16.3

Notebook entry, OVCAR-5 ovarian assay: TGI of CNCc1cccc2c1OCCOCCOCCNS(=O)(=O)c1ccc(cc1)-c1cnc(N)c(n1)C(=O)N2 = ?
6.37

Notebook entry, OVCAR-5 ovarian assay: TGI of OCc1ccc(N2CCc3ccc(F)cc3C2)cc1Cl = ?
0.183

---

- System: UO-31 renal
- assay-comment: NCI tumour cell line growth inhibition, 48 h
Listed here: items and their measured TGI.

{"columns": ["compound", "TGI"],
 "data": [
  ["CCOC(=O)c1nc2ccc(C(F)(F)F)cc2nc1Oc1ccc(OC)cc1", "> 100 µM"],
  ["O=c1c2cc(Br)ccc2nc(CNc2ccccc2)n1-c1ccccc1", "> 57.8 µM"],
  ["CCCCCC(=O)OC[n+]1cccc(-c2c(COC(=O)NC(C)C)c(COC(=O)NC(C)C)c3n2CCC3)c1", "> 100 µM"],
  ["CCCCCCCCCCCCOC1C(C(COC2OC(C(O)CO)C3OC(C)(C)OC23)OC(=O)Nc2ccccc2)OC2OC(C)(C)OC21 (stereo not given)", "23.7 µM"],
  ["COc1cc(Nc2nc3cc(C)ccc3nc2-c2ccccc2)cc(OC)c1OC", "77.7 µM"],
  ["O=C(O)c1ccccc1/C=C1\\Cc2cc3c(cc2C1=O)CCC3", "> 100 µM"]
]}

If you can, please state the reported TGI value of Cc1cc(C=O)c2c(=O)c3c(O)ccc(/C=C/C(C)C)c3oc2c1 .
> 100 µM

If you can, please state the reported TGI value of O=C(CC1(O)C(=O)Nc2c(Cl)ccc(Cl)c21)c1ccc(Cl)cc1 (stereo not given) .
> 100 µM

If you can, please state the reported TGI value of CC(=O)O[C@H]1C[C@@H]2[C@@]3(C)CC[C@H]4C[C@@]4(C)[C@@H]3CC[C@@]2(C)C2=CCC3=C(COC3=O)[C@]21C .
> 100 µM

If you can, please state the reported TGI value of O=C1NC(=NCc2cccs2)O/C1=C\c1ccc2ncccc2c1 .
14.1 µM

If you can, please state the reported TGI value of COc1cc(NC(=O)COc2ccccc2)c(C(N)=O)cc1OC .
> 100 µM

If you can, please state the reported TGI value of O=c1c2sc3ccccc3sc=2c(=O)c2c(Cl)c(Cl)c(Cl)c(Cl)c12 .
> 100 µM

If you can, please state the reported TGI value of N/C(CCSCCSCC/C(N)=N\O)=N\O .
> 100 µM

If you can, please state the reported TGI value of COC(=O)c1ccc(CCC2=CC(=O)C=CC2=O)cc1 .
19.9 µM

---

Listed here: items and their measured TGI.
- Tested on: HL-60(TB) leukemia
- assay-comment: NCI tumour cell line growth inhibition, 48 h
Give the quantity in µM, number only.

{"columns": ["smiles-entry", "TGI [µM]"],
 "data": [
  ["CC[C@@H]1CC[C@@H]2[C@H](CC[C@]3(C)[C@@H](O[N+](=O)[O-])CC[C@@H]23)[C@H]1C(C)=O", 37],
  ["O=C(CCN1CCOCC1)Nc1ccc(Cn2nnc3c2C(=O)c2nnn(Cc4ccc(NC(=O)CCN5CCOCC5)cc4)c2C3=O)cc1", 4.63],
  ["COc1ccc([C@@H]2[C@@H](Oc3ccccc3)C(=O)N2c2cc(OC)c(OC)c(OC)c2)cc1F", 0.609],
  ["COc1cc(Nc2nc3cc(C)ccc3nc2-c2ccccc2)cc(OC)c1OC", 54.5]
]}

Okay, next one:
If you can, please state the reported TGI value of CC1(C)CC2=NO[Se]3=C2C(=NO3)C1 .
5.08

---

- Tested on: UACC-62 melanoma
- assay-comment: NCI tumour cell line growth inhibition, 48 h
Use TGI to assign classes; range list: small value = under 9 µM, mid value = from 9 µM up to 70 µM, large value = 70 µM and over

Some entries whose results are on file:
{"columns": ["compound", "discrete-label"],
 "data": [
  ["CC(C)c1ccc2c(c1)CCC1C2CCCC1(C)NCc1ccccc1 (centres undefined)", "small value"],
  ["COc1cc(S(=O)(=O)Nc2nc(-c3ccc(N=Cc4ccccc4O)cc3)cs2)ccc1Cl", "large value"],
  ["C(=NC12CC3CC(CC(C3)C1)C2)C1CCCCC1", "large value"]
]}

Pick a category. Item: COC(=O)c1c(C)cccc1C1CN=NC12Cc1cc(C)c(C)cc1C2=O (centres undefined)
large value

Pick a category. Item: O=[N+]([O-])c1ccc(/C=C/c2ccc(/C=C/c3ccc([N+](=O)[O-])cc3[N+](=O)[O-])cc2)c([N+](=O)[O-])c1
large value

Pick a category. Item: CN(C)CCNC(=O)c1cccc2c1nc(-c1cccnc1)c1ccccc12
mid value

Pick a category. Item: COC(=O)/C(=N\N)C(C(=O)C(=O)Nc1cc(Cl)ccc1Cl)c1nc2ccc([N+](=O)[O-])cc2[nH]c1=O (centres undefined)
large value

Pick a category. Item: CCN(C(=O)N[C@@H](CC(C)C)C(=O)NCC(=O)OC)c1ccccc1
large value

Pick a category. Item: CC1(c2ccc(Cl)cc2)C=C(c2ccc(Cl)cc2)C(C#N)=C(C(C#N)C#N)N1 (centres undefined)
mid value

Pick a category. Item: NS(=O)(=O)c1c(O)c2ccccc2oc1=O
large value
